Assay: Simulated gastric fluid (SGF) stability
Type: in vitro ADME
Conditions: simulated gi fluid, SGF stability t1/2
readout: half-life

Enquiry: Which half-life is listed for CC(C)[C@@H](C)/C=C/[C@@H](C)[C@H]1CC[C@@H]2[C@]1(C)CC[C@H]1[C@]23C=C[C@]2(C[C@@H](O)CC[C@]12C)OO3 [Compound 2, Ergosterol peroxide] ?
Return: > 48 h

Enquiry: Next up: CC(C)[C@@H](C)/C=C/[C@@H](C)[C@H]1CC[C@@H]2[C@]1(C)CC[C@H]1[C@]23C=C[C@]2(CC(=O)CC[C@]12C)OO3
Return: ~9 h

###

Hi there, I'd appreciate the recorded solubility at […] for every entry that follows.
Test: Aqueous solubility by UV/vis absorbance
Type: physicochemical
Settings: water, kinetic from dmso stock
I only need the number, in µg/mL, no unit after it.

Enquiry: Which solubility at […] value is on record for CC(C)[C@@H](C)/C=C/[C@@H](C)[C@H]1CC[C@@H]2[C@]1(C)CC[C@H]1[C@]23C=C[C@]2(C[C@@H](OS(=O)(=O)O)CC[C@]12C)OO3 ?
Return: 15.5

Enquiry: Query CC(C)[C@@H](C)/C=C/[C@@H](C)[C@H]1CC[C@@H]2[C@]1(C)CC[C@H]1[C@]23C=C[C@]2(C[C@@H](OC(=O)NS(=O)(=O)c4ccccc4)CC[C@]12C)OO3 next
Return: 26.8

Enquiry: Lookup CC(C)[C@@H](C)C1OC1[C@@H](C)[C@H]1CC[C@@H]2[C@]1(C)CC[C@H]1[C@]23C=C[C@]2(C[C@@H](OS(=O)(=O)O)CC[C@]12C)OO3 (stereo partly drawn)
Return: 26.2

Enquiry: For CC(C)[C@@H](C)/C=C/[C@@H](C)[C@H]1CC[C@@H]2[C@]1(C)CC[C@H]1[C@]23C=C[C@]2(CC(=O)CC[C@]12C)OO3 then?
Return: 10.7

Enquiry: // query: CC(C)[C@@H](C)/C=C/[C@@H](C)[C@H]1CC[C@@H]2[C@]1(C)CC[C@H]1[C@@]23OO[C@@]2(C[C@@H](O)CC[C@]12C)C(O)C3O (stereo partly drawn)
Return: 23.1

Enquiry: Please answer likewise for C=CC(=O)O[C@H]1CC[C@]2(C)[C@H]3CC[C@]4(C)[C@@H]([C@H](C)/C=C/[C@H](C)C(C)C)CC[C@H]4[C@@]34C=C[C@]2(C1)OO4
Return: 24.1

Enquiry: Please do the same for CC(C)[C@@H](C)/C=C/[C@@H](C)[C@H]1CC[C@@H]2[C@]1(C)CC[C@H]1[C@@]23OO[C@@]2(C[C@@H](OS(=O)(=O)O)CC[C@]12C)C(OS(=O)(=O)O)C3OS(=O)(=O)O (stereo partly drawn) as well.
Return: 17.8

Enquiry: Try this compound too: CC(C)[C@@H](C)C(O)C(O)[C@@H](C)[C@H]1CC[C@@H]2[C@]1(C)CC[C@H]1[C@@]23OO[C@@]2(C[C@@H](O)CC[C@]12C)C(O)C3O (stereo partly drawn)
Return: 24.8

Enquiry: Now give it for CC(C)[C@@H](C)C1OC1[C@@H](C)[C@H]1CC[C@@H]2[C@]1(C)CC[C@H]1[C@]23C=C[C@]2(C[C@@H](O)CC[C@]12C)OO3 (stereo partly drawn) too.
Return: 5.56

###

Target: CYP1A2 (Homo sapiens)
Sequence (P05177 1-516): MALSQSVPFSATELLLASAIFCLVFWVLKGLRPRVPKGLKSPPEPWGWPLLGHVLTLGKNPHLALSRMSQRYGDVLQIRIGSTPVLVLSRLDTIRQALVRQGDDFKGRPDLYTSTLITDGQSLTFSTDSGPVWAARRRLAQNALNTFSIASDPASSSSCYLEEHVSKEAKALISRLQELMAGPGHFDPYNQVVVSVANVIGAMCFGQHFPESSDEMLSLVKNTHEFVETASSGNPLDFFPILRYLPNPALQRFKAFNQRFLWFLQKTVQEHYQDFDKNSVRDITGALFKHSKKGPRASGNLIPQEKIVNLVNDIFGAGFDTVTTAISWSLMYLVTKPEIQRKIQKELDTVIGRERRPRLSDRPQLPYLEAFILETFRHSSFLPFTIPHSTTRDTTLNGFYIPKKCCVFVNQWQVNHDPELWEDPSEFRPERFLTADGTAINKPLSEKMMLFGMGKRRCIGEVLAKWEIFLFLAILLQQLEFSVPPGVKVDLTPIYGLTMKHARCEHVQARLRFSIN
readout: pIC50
Just so you know, pIC50 here is -log10 of the concentration in molar units; reply with that number alone.

Enquiry: Value lookup for pIC50; key = CC(C)[C@@H](C)/C=C/[C@@H](C)[C@H]1CC[C@@H]2[C@]1(C)CC[C@H]1[C@]23C=C[C@]2(C[C@@H](O)CC[C@]12C)OO3 [Compound 2, Ergosterol peroxide]
Return: 4.79

###

Assay: Parallel Artificial Membrane Permeability Assay (PAMPA)
Assay type: in vitro ADME
Details: PAMPA, pH 7.4; pH 7.40; read-out: PAMPA Avg Pe
readout: Papp at 0.5 h, 50 µM (×10⁻⁶ cm/s)
API: value field is a number in ×10⁻⁶ cm/s; no unit string.

Enquiry: Look at this compound and give its reported Papp at 0.5 h, 50 µM. CC(C)[C@@H](C)/C=C/[C@@H](C)[C@H]1CC[C@@H]2[C@]1(C)CC[C@H]1[C@]23C=C[C@]2(C[C@@H](O)CC[C@]12C)OO3 [Compound 2, Ergosterol peroxide]
Return: 65.3

###

Experiment: in vitro
Details: male, Balb/c, mouse, plasma
readout: half-life

Enquiry: Entry CC(C)[C@@H](C)/C=C/[C@@H](C)[C@H]1CC[C@@H]2[C@]1(C)CC[C@H]1[C@]23C=C[C@]2(C[C@@H](OC(=O)NS(=O)(=O)c4ccccc4)CC[C@]12C)OO3 has what half-life?
Return: > 48 h

###

Assay: Plasma stability assay (human)
readout: half-life (min)
Report as a plain number; the unit min is understood.

Enquiry: Find the recorded half-life belonging to CC1CC(OC(=O)C(O)c2ccccc2)CC(C)(C)N1C (centres unmarked) [eucatropine, reference compound] and report it.
Return: 24.6

###

Biological target: CYP3A4 (Homo sapiens, UniProt P08684)
Construct: from tissue; host or cells: pooled human liver microsomes
Sequence (P08684 whole entry): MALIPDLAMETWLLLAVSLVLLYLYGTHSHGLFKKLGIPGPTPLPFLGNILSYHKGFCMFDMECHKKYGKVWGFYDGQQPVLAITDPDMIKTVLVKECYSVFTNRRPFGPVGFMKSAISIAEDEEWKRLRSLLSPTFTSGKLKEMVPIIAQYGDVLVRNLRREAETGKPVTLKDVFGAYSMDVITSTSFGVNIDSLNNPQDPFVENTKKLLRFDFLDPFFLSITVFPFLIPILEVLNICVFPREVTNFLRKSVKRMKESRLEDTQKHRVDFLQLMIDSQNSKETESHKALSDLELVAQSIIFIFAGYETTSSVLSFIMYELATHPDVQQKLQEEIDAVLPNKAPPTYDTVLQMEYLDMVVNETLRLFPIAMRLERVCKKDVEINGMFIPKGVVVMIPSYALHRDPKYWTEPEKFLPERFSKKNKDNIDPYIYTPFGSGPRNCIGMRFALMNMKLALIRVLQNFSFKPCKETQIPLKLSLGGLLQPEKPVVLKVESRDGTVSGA
Experiment: Microsomal CYP inhibition assay, CYP3A4
Type: in vitro ADME
Details: pooled human liver microsomes, probe midazolam; read-out: CYP3A4-Midazolam inhibition
pIC50: −log10 of the molar value.
readout: pIC50

Enquiry: Fill in the blank: the reported pIC50 of CC(C)[C@@H](C)/C=C/[C@@H](C)[C@H]1CC[C@@H]2[C@]1(C)CC[C@H]1[C@]23C=C[C@]2(C[C@@H](O)CC[C@]12C)OO3 [Compound 2, Ergosterol peroxide] is ____.
Return: < 4.60

###

Experiment: Caco-2 permeability assay
Type: in vitro ADME
Settings: human, Caco-2, pH 7.4; basolateral to apical
readout: Papp B→A at 2 h, 10 µmol/L
The reply should consist of the numeric value with the unit placed after it.

Enquiry: If you can, please state the reported Papp B→A at 2 h, 10 µmol/L value of CC(C)[C@@H](C)/C=C/[C@@H](C)[C@H]1CC[C@@H]2[C@]1(C)CC[C@H]1[C@]23C=C[C@]2(C[C@@H](O)CC[C@]12C)OO3 [Compound 2, Ergosterol peroxide] .
Return: 31.9 ×10⁻⁶ cm/s

Enquiry: Follow-up item: NC(=O)N1c2ccccc2C=Cc2ccccc21 [carbamazepine, reference compound]
Return: 27.7 ×10⁻⁶ cm/s

Enquiry: Same again, this time with CC(C)[C@@H](C)/C=C/[C@@H](C)[C@H]1CC[C@@H]2[C@]1(C)CC[C@H]1[C@]23C=C[C@]2(CC(=O)CC[C@]12C)OO3 [Compound 3]
Return: 0.307 ×10⁻⁶ cm/s

###

Assay: Aqueous solubility by UV/vis absorbance
Assay type: physicochemical
Details: distilled water, kinetic from dmso stock, distilled H2O, UV/vis, read-out: solubility limit
Description: First, topological polar surface area (tPSA), a widely used molecular descriptor that provides insight into compound absorption and membrane penetration, was theoretically calculated for these compounds along with the estimated c log P (partition coefficient) or log P to further assess their global therapeutic potential.[18],[19] […] The aqueous solubility was measured by ultraviolet/visible (UV/vis) spectroscopy.[21] […]
Kindly supply the reported solubility at […] values for the records listed here.
Your answer is read as µg/mL, so omit the unit and give the number.

Enquiry: solubility at […] for CC(C)[C@@H](C)/C=C/[C@@H](C)[C@H]1CC[C@H]2C3=CC=C4C[C@@H](O)CC[C@]4(C)[C@H]3CC[C@]12C ?
Return: 0.59

Enquiry: Can you handle CC(C)[C@@H](C)/C=C/[C@@H](C)[C@H]1CC[C@@H]2[C@]1(C)CC[C@H]1[C@]23C=C[C@]2(C[C@@H](O)CC[C@]12C)OO3 [Compound 2, Ergosterol peroxide] next?
Return: 21.4
